Target: F protein of wild type RSV A/Long (respiratory syncytial virus, strain …, UniProt P12568 26-574)
Sequence (P12568 26-574): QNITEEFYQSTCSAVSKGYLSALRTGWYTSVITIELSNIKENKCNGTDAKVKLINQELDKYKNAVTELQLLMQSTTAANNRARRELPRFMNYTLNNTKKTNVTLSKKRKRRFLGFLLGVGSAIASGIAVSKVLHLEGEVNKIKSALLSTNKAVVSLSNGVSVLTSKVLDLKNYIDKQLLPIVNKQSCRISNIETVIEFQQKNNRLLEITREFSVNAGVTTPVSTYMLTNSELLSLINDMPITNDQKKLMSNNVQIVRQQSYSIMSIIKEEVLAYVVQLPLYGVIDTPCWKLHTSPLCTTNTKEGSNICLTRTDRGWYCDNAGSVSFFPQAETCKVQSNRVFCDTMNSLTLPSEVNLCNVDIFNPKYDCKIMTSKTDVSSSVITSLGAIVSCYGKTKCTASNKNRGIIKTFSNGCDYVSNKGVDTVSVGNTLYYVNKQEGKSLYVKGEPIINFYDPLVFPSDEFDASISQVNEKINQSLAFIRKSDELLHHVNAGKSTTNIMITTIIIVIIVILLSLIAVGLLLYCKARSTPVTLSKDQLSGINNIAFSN
Test: cell-based or functional assay
Consider the following binders; for each one, report its Fold Difference (Curve IC50).
Give bare numbers, in fold.

Known Fold Difference (Curve IC50) results, listed for orientation:
binder	Fold Difference (Curve IC50) [fold]
P12f4 (Fab) (Fab, V domains shown) VH: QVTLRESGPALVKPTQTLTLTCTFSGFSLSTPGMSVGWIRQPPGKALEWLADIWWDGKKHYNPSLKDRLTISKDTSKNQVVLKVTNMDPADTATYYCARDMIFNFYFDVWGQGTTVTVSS VL: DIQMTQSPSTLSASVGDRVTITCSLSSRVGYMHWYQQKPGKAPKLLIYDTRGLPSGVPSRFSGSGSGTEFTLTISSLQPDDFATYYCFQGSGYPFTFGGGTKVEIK	10
A13c4 (Fab) (Fab, V domains shown) VH: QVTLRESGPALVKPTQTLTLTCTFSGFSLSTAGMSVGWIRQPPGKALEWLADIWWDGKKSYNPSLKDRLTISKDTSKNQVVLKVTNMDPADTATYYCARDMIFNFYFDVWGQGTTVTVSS VL: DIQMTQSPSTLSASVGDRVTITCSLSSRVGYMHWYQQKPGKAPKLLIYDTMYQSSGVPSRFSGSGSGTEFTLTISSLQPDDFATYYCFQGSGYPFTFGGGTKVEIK	17

For each entry beneath this line, provide reported Fold Difference (Curve IC50).
1. P11d4 (monoclonal antibody) (antibody, V domains shown) VH: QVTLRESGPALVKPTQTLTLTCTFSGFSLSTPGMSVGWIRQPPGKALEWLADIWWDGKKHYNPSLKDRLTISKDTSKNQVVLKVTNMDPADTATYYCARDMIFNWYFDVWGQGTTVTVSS VL: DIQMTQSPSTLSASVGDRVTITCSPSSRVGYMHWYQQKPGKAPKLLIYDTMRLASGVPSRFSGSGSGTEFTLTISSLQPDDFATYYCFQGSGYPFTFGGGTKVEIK
2. P12f2 (monoclonal antibody) (antibody, V domains shown, also called Pf12; P1212) VH: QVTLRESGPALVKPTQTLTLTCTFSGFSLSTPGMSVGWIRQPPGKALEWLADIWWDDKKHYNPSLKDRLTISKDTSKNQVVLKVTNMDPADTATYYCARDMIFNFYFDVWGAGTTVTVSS VL: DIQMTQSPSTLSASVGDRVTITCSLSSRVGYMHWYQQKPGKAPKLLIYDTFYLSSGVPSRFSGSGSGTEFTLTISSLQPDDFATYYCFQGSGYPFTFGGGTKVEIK
3. A12a6 (Fab) (Fab, V domains shown) VH: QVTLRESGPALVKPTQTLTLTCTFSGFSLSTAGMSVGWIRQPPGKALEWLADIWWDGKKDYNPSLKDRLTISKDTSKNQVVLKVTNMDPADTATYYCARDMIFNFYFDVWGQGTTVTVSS VL: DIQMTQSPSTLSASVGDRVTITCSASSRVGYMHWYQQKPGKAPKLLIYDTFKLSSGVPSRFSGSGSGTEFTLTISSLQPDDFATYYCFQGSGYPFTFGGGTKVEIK

Outgoing:
1: 21; 2: 20; 3: 16
